# study.system: His-tagged canine IL-31 (interleukin 31) recombinant protein (canine)
# run.description: BLI (Gator), biotinylated antibody on streptavidin probe, canine IL-31 as analyte
readout.kind: Kd (nM)
Numeric only. Scale: nM

Incoming: Which value of Kd has been reported for 6465-H1K2-canIgGB (antibody, V domains shown) VH: EVQLVESGGDLVKPGGSLRLSCVASGYSFTNYYLYWVRQAPGKGLEWVGELNPRNGGTNLNAKFKTRFTISVDKAKNMAYLQMNSLRAEDTAVYYCTRGGTTVVVRDVMDFWGQGTLVTVSS VL: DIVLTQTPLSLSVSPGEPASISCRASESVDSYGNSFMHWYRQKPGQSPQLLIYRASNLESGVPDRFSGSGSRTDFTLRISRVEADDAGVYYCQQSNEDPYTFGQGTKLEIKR in the records?
Outgoing: 6.54

Incoming: What about this binder? 7475-H3K1-canIgGB (antibody, V domains shown) VH: EVQLVESGGDLVKPGGSLRLSCVASGFTFSSYAMSWVRQAPGKGLQWVARISNGGDYIFYADTVKGRFTISRDNAKNTLYLQMNSLRAEDTAMYYCTRRGHYNTSSYWYFDVWGQGTLVTVSS VL: EIVMTQSPASLSLSQEEKVTITCKASENVGTYVSWYQQKPGQAPKLLIYGASNRYTGVPSRFSGSGSGTDFTFTISSLEPEDVAVYYCGQSYSYPPTFGAGTKVELKR
Outgoing: 4.84

Incoming: What about this binder? B2-H2K3-canIgGB (antibody, V domains shown) VH: EVQLVESGGDLVKPGGSLRLSCVASGFTFSDAWMDWVRQAPGKGLEWVAEIRSRAESHATYYAESVKGRFTISRDDAKNMVYLQMNSLRAEDTAVYYCTPASTMITTGWFAYWGQGTLVTVSS VL: EIVMTQTPLSLSVSPGELATISCRASQNISVYLHWYQQKPGQAPKVLIKYVSQSISGVPSRFSGSGSGSDFTLTISSVEAEDVGVYYCQNGHSFPYTFGQGTKLEIKR
Outgoing: 1.53

Incoming: What about this binder? 7475-H1K1-canIgGB (antibody, V domains shown) VH: EVQLVESGGDLVKPGGSLRLSCVASGFTFSSYAMSWVRQAPGKGLQWVAYISNGGDYIFYADTVKGRFTISRDNARNTLYLQMNSLRSEDTAVYYCTRRGHYNTSSYWYFDVWGQGTLVTVSS VL: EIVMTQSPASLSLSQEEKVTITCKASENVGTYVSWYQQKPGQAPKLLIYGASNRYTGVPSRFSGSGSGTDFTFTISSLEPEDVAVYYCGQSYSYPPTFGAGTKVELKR
Outgoing: 6.73

Incoming: What about this binder? 7475-H2K1-canIgGB (antibody, V domains shown) VH: EVQLVESGGDLVKPGGSLRLSCVASGFTFSSYAMSWIRQAPGKGLQWVAYISNGGDYIFYADTVKGRFTISRDNAKNTLYLQMNSLRAEDTAVYYCTRRGHYNTSSYWYFDVWGQGTLVTVSS VL: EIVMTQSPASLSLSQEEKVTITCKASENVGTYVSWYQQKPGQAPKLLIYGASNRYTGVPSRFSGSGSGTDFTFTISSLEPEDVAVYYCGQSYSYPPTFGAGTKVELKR
Outgoing: 5.43
